# MEASUREMENT_PROTOCOL: Determination of solubility
# Format: physicochemical
# PROTOCOL_CONDITIONS: 0.3 M phosphate buffer, thermodynamic from solid; aqueous buffer at pH 7.4
# Protocol: Determination of Solubility Solubility of the compounds was determined by preparing a saturated solution of compound in 0.3 M phosphate buffer (pH 7.4±0.3) in a brown glass tube. The suspensions were rotated slowly for 24 hours. Aliquots were centrifuged for 10 minutes at 14.000 rpm and supernatants were diluted in 40% (v/v) acetonitrile in water prior to HPLC analysis. Concentrations of analytes were quantified against a standard curve and used as term of solubility. […]

MOLECULE: Cc1ccccc1-c1ccc(OCCN(C)C)c(CCC(=O)c2ccccc2CN(C)C)c1 [Compound C073]
solubility at 24 h: > 10000 µg/mL

###

# Test system: Staphylococcus aureus ATCC29213
# MEASUREMENT_PROTOCOL: MIC determination in broth microdilution assay
# PROTOCOL_CONDITIONS: A: Staphylococcus aureus ATCC29213
MEASURED_PARAMETER: MIC

MOLECULE: Cc1cc(C)cc(-c2ccc(OCCN(C)C)c(/C=C/C(=O)c3cccc(O)c3)c2)c1 [Compound C085]
RESULT: 4.7 µM

MOLECULE: Cc1cc(C)cc(-c2ccc(OCCN(C)C)c(/C=C/C(=O)c3cccc(CN(C)C)c3)c2)c1 [Compound C089]
RESULT: 9.4 µM

MOLECULE: COc1ccc(C(=O)/C=C/c2cc(C(C)(C)C)ccc2OCCN(C)C)c(F)c1 [Compound C004]
RESULT: 9.4 µM

MOLECULE: CCCc1cc(/C=C/C(=O)c2ccc(OC)cc2F)c(OCCN(C)C)cc1O [Compound C039]
RESULT: 9.4 µM

MOLECULE: Cc1cc(C)cc(-c2ccc(OCCN(C)C)c(/C=C/C(=O)c3ccccc3N)c2)c1 [Compound C093]
RESULT: 4.7 µM

MOLECULE: Cc1cc(C)cc(-c2ccc(OCCN(C)C)c(/C=C/C(=O)c3ccccc3NCCN(C)C)c2)c1 [Compound C074]
RESULT: 9.4 µM

MOLECULE: Cc1cc(C)cc(-c2ccc(OCCN(C)C)c(/C=C/C(=O)c3cccc(NCCN(C)C)c3)c2)c1 [Compound C075]
RESULT: 4.7 µM

MOLECULE: Cc1cc(C)cc(-c2ccc(OCCN(C)C)c(/C=C/C(=O)c3cccc(N4CCN(C)CC4)c3)c2)c1 [Compound C103]
RESULT: 4.7 µM

MOLECULE: Cc1cc(C)cc(-c2ccc(OCCN(C)C)c(/C=C/C(=O)c3ccccc3OCCCN(C)C)c2)c1 [Compound C104]
RESULT: 9.4 µM

MOLECULE: COc1ccc(C(=O)/C=C/c2cc(-c3cc(C)cc(C)c3)ccc2OCCN(C)C)c(CN(C)C)c1 [Compound C092]
RESULT: 4.7 µM

MOLECULE: COc1ccc(C(=O)/C=C/c2cc(-c3cc(C)cc(C)c3)ccc2OCCN(C)C)cc1 [Compound C023]
RESULT: 4.7 µM

MOLECULE: Cc1cc(C)cc(-c2ccc(OCCN(C)C)c(/C=C/C(=O)c3ccc(OCCN(C)C)cc3F)c2)c1 [Compound C157]
RESULT: 4.7 µM

MOLECULE: C=CC(C)(C)c1cc(/C=C/C(=O)c2ccc(O)cc2)c(OC)cc1O [LicA, Licochalcone A]
RESULT: 37.5 µM

MOLECULE: Cc1cc(C)cc(-c2ccc(OCCN(C)C)c(/C=C/C(=O)c3ccccc3OC(C)C)c2)c1 [Compound C067]
RESULT: 4.7 µM
